Where do the numbers come from? From ChEMBL document CHEMBL1131957.

target: Neuropeptide Y receptor type 1 (Homo sapiens, UniProt P25929)
Sequence (P25929 whole entry): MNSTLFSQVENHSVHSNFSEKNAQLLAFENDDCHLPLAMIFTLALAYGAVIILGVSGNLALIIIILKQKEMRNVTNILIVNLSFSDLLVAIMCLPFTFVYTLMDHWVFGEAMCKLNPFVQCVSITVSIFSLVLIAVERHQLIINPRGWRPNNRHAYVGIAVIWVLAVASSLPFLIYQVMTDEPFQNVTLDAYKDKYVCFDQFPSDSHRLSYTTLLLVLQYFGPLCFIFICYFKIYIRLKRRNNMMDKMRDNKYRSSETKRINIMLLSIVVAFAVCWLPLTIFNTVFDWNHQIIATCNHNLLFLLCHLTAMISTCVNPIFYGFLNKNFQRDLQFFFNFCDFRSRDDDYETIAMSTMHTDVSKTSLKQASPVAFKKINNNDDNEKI
Label key: label 1 means Ki under 0.4 nM; label 0 means Ki of 0.4 nM or more.

c1ccc(OCc2nc3c(OCCCN4CCCCC4)cccc3n2CCCC2CCNCC2)cc1
label 0
Ic1ccc(CCN2CCC(CCCn3c(COc4ccccc4)nc4c(OCCCN5CCCCC5)cccc43)CC2)cc1
label 1
c1ccc(CCN2CCC(CCCn3c(COc4ccccc4)nc4c(OCCCN5CCCCC5)cccc43)CC2)cc1
label 1
c1ccc(CCCN2CCC(CCCn3c(COc4ccccc4)nc4c(OCCCN5CCCCC5)cccc43)CC2)cc1
label 1
CC(C)N1CCC(CCCn2c(COc3ccccc3)nc3c(OCCCN4CCCCC4)cccc32)CC1
label 0

Strictly below 0.4 nM in Ki? Oc1ccc(CCN2CCC(CCCn3c(COc4ccccc4)nc4c(OCCCN5CCCCC5)cccc43)CC2)cc1
label 1

Strictly below 0.4 nM in Ki? O=C(CN1CCC(N2CCCCC2)CC1)c1c(COc2ccc(Cl)cc2)n(CCCC2CCCNC2)c2ccccc12 (stereo not drawn)
label 0
